Target: Mouse B6 (C57Bl/6) MHC class I antigens on RMA-S cells (D^b or K^b) (mouse (C57Bl/6))
Assay: binding of 9-mer peptide to mouse B6 (H-2b) class I; RMA-S stabilisation assay as in Example 4
value type: Binding Affinity to Mouse MHC Class I (%)
Lab book: enter the figure in %, no units written.

binder	recorded measurement
NAPYLPSCL [WT1 peptide P130-138 (…)]	79

Give the measured Binding Affinity to Mouse MHC Class I (%) of MFPNAPYLP [WT1 peptide P127-135 (…)] . 2

Give the measured Binding Affinity to Mouse MHC Class I (%) of QASSGQARM [WT1 peptide P119-127 (…)] . 2

Give the measured Binding Affinity to Mouse MHC Class I (%) of ASSGQARMF [WT1 peptide P120-128 (…)] . 1

Give the measured Binding Affinity to Mouse MHC Class I (%) of PNAPYLPSC [WT1 peptide P129-137 (…)] . 1

Give the measured Binding Affinity to Mouse MHC Class I (%) of APYLPSCLE [WT1 peptide P131-139 (…)] . 1

Give the measured Binding Affinity to Mouse MHC Class I (%) of PSQASSGQA [WT1 peptide P117-125 (…)] . 2

Give the measured Binding Affinity to Mouse MHC Class I (%) of SQASSGQAR [WT1 peptide P118-126 (…)] . 2

Give the measured Binding Affinity to Mouse MHC Class I (%) of SSGQARMFP [WT1 peptide P121-129 (…)] . 1

Give the measured Binding Affinity to Mouse MHC Class I (%) of ARMFPNAPY [WT1 peptide P125-133 (…)] . 1

Give the measured Binding Affinity to Mouse MHC Class I (%) of QARMFPNAP [WT1 peptide P124-132 (…)] . 1

Give the measured Binding Affinity to Mouse MHC Class I (%) of FPNAPYLPS [WT1 peptide P128-136 (…)] . 1
